- Test system: HL-60
- testDetails: Cytotoxicity against human HL60 cells after 48 hrs by MTT assay
- Assay type: functional, cell-based
- testSettings: HL-60, 48 h
Reported IC50 values for the following molecules.

{"smilesString": "C[C@H]1CCC=C2C(=O)C=C([C@]3(CO)CCC(=O)C4=C3C(=O)C3=CCC[C@H](C)[C@@]3(C)C4)C[C@@]21C", "IC50": "> 40 µM"}

Input: Param readout = IC50; param system = HL-60; param query = C[C@H]1CCC=C2C(=O)C=C([C@]3(CO)CC[C@](O)(CO)C4=C3C(=O)C3=CCC[C@H](C)[C@@]3(C)C4)C[C@@]21C ; response: value
Output: > 40 µM

Input: Param readout = IC50; param system = HL-60; param query = C[C@H]1CCC=C2C(=O)C=C([C@]3(CO)CC[C@@H](CO)C4=C3C(=O)C3=CCC[C@H](C)[C@@]3(C)C4)C[C@@]21C ; response: value
Output: > 40 µM

Input: Param readout = IC50; param system = HL-60; param query = C[C@H](CO)C1=CC(=O)C2=CCC[C@H](C)[C@@]2(C)C1 ; response: value
Output: > 40 µM

Input: Param readout = IC50; param system = HL-60; param query = C[C@H]1CCC=C2C(=O)C=C([C@]3(CO)CC[C@@](O)(CO)C4=C3C(=O)C3=CCC[C@H](C)[C@@]3(C)C4)C[C@@]21C ; response: value
Output: > 40 µM

Input: Param readout = IC50; param system = HL-60; param query = C=C(CO)[C@@H]1CC(=O)C2=CCC[C@H](C)[C@@]2(C)C1 ; response: value
Output: 15.2 µM

---

- System: SMMC-7721
- testDetails: Cytotoxicity against human SMMC7721 cells after 48 hrs by MTT assay
- Type: functional, cell-based
- testSettings: SMMC-7721, 48 h
pIC50: −log10 of the molar value.
reportedProperty: pIC50

{"compound": "C[C@H]1CCC=C2C(=O)C=C([C@]3(CO)CC[C@@H](CO)C4=C3C(=O)C3=CCC[C@H](C)[C@@]3(C)C4)C[C@@]21C [DIINCARVILONE C]", "systemUnderTest": "SMMC-7721", "pIC50": "< 4.40"}

Input: GET /values?readout=pIC50&item= C[C@H](CO)C1=CC(=O)C2=CCC[C@H](C)[C@@]2(C)C1 [INCARVILONE A]
Output: < 4.40

Input: GET /values?readout=pIC50&item= C=C(CO)[C@@H]1CC(=O)C2=CCC[C@H](C)[C@@]2(C)C1 [ARGUTOSINE B]
Output: 4.47

---

- Test system: SW480
- testDetails: Cytotoxicity against human SW480 cells after 48 hrs by MTT assay
- Type: functional, cell-based
- testSettings: SW480, 48 h
Reported IC50 values for the following compounds.

Solved entries:
{"compound": "C[C@H](CO)C1=CC(=O)C2=CCC[C@H](C)[C@@]2(C)C1 [INCARVILONE A]", "IC50": "> 40 µM"}
{"compound": "C[C@H]1CCC=C2C(=O)C=C([C@]3(CO)CC[C@@](O)(CO)C4=C3C(=O)C3=CCC[C@H](C)[C@@]3(C)C4)C[C@@]21C [DIINCARVILONE A]", "IC50": "> 40 µM"}
{"compound": "C[C@H]1CCC=C2C(=O)C=C([C@]3(CO)CCC(=O)C4=C3C(=O)C3=CCC[C@H](C)[C@@]3(C)C4)C[C@@]21C [DIINCARVILONE D]", "IC50": "> 40 µM"}
{"compound": "C[C@H]1CCC=C2C(=O)C=C([C@]3(CO)CC[C@](O)(CO)C4=C3C(=O)C3=CCC[C@H](C)[C@@]3(C)C4)C[C@@]21C [DIINCARVILONE B]", "IC50": "> 40 µM"}
{"compound": "C[C@H]1CCC=C2C(=O)C=C([C@]3(CO)CC[C@@H](CO)C4=C3C(=O)C3=CCC[C@H](C)[C@@]3(C)C4)C[C@@]21C [DIINCARVILONE C]", "IC50": "> 40 µM"}

Next item in the queue.
Input: Param readout = IC50; param system = SW480; param query = C=C(CO)[C@@H]1CC(=O)C2=CCC[C@H](C)[C@@]2(C)C1 [ARGUTOSINE B] ; response: value
Output: 15.6 µM

---

- Test system: SMMC-7721
- testDetails: Cytotoxicity against human SMMC7721 cells after 48 hrs by MTT assay
- Type: functional, cell-based
- testSettings: SMMC-7721, 48 h
reportedProperty: IC50

{"smilesString": "C[C@H]1CCC=C2C(=O)C=C([C@]3(CO)CC[C@@](O)(CO)C4=C3C(=O)C3=CCC[C@H](C)[C@@]3(C)C4)C[C@@]21C", "IC50": "> 40 µM"}

Input: Param readout = IC50; param system = SMMC-7721; param query = C[C@H]1CCC=C2C(=O)C=C([C@]3(CO)CCC(=O)C4=C3C(=O)C3=CCC[C@H](C)[C@@]3(C)C4)C[C@@]21C ; response: value
Output: > 40 µM

Input: Param readout = IC50; param system = SMMC-7721; param query = C[C@H]1CCC=C2C(=O)C=C([C@]3(CO)CC[C@](O)(CO)C4=C3C(=O)C3=CCC[C@H](C)[C@@]3(C)C4)C[C@@]21C ; response: value
Output: > 40 µM
